test-details: Storage stability test, chemical content by HPLC
Type: physicochemical
assay-conditions: chemical content as % of initial content
Provide the recorded Chemical stability, 40° C./75% R.H. One week for the entries that follow.
Give bare numbers, in %.

Each of the following entries comes with a recorded value; kindly state Chemical stability, 40° C./75% R.H. One week for each.
1. CN(C)C/C=C/C(=O)Nc1cc2c(Nc3ccc(F)c(Cl)c3)ncnc2cc1OC(F)F [Crystal form E]
2. CN(C)C/C=C/C(=O)Nc1cc2c(Nc3ccc(F)c(Cl)c3)ncnc2cc1OC(F)F [Crystal form K]
3. CN(C)C/C=C/C(=O)Nc1cc2c(Nc3ccc(F)c(Cl)c3)ncnc2cc1OC(F)F [Free base]
4. CN(C)C/C=C/C(=O)Nc1cc2c(Nc3ccc(F)c(Cl)c3)ncnc2cc1OC(F)F [Crystal form G]
5. CN(C)C/C=C/C(=O)Nc1cc2c(Nc3ccc(F)c(Cl)c3)ncnc2cc1OC(F)F [Crystal form F]

**Result**
1: 99.5; 2: 99.8; 3: 94.8; 4: 99.6; 5: 99.7
